# tested_on: T1, IL-6R-Fc 항원 (IL-6R full domain 단백질) (human, UniProt P08887 20-365)
# T1 construct: domain: IL-6R full domain; Expressed transiently in HEK293E and purified from the supernatant; also called IL-6R 항원; not shown: Fc part from expression vector pYK 604
# T1 sequence (looked up): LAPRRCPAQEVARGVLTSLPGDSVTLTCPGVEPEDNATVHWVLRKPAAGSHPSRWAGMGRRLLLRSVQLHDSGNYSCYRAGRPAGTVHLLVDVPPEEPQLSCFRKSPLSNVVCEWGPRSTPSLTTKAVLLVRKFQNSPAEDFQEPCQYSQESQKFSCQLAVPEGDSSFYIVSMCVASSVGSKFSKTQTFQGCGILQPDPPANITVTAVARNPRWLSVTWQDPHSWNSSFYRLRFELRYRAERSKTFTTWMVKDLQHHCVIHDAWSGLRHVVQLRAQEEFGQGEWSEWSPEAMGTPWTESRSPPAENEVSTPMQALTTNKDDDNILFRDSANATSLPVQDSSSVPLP
# protocol_description: ELISA (summary table; same value as the 3rd table)
quantity_measured: pKd
Scale explanation: pKd corresponds to minus log10 of a concentration expressed in moles per litre.

Example entries begin here.
{"columns": ["binder", "recorded_result"],
 "data": [
  ["항 IL-6R 단클론 항체 B10 (IgG) (antibody, V domains shown, Phage clone converted to whole IgG) VH: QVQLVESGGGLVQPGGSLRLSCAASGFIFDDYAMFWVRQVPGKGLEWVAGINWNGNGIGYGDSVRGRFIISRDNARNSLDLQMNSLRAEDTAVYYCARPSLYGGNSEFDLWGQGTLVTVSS VL: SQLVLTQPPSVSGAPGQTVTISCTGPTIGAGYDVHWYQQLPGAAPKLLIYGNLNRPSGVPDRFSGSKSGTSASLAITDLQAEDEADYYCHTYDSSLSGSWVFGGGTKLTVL", 8.37],
  ["항 IL-6R 단클론 항체 A7 (IgG) (antibody, V domains shown, Phage clone converted to whole IgG) VH: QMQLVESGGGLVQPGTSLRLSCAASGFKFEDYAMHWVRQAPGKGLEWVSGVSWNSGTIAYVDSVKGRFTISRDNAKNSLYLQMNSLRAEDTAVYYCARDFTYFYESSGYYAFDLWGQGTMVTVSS VL: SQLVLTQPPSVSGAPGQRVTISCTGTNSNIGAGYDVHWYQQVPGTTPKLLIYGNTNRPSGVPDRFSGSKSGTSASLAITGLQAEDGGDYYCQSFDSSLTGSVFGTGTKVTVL", 8.64],
  ["항 IL-6R 단클론 항체 D2 (IgG) (antibody, V domains shown, Phage clone converted to whole IgG) VH: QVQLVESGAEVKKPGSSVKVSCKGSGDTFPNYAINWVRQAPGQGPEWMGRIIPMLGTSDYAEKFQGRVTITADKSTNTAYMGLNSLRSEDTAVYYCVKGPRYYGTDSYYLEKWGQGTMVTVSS VL: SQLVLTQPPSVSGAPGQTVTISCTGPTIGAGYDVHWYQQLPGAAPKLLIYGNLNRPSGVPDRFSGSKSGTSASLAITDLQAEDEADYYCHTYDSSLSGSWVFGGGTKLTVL", 8.12]
]}

Q: Let me know recorded pKd for 항 IL-6R 단클론 항체 F2 (IgG) (antibody, V domains shown, Phage clone converted to whole IgG) VH: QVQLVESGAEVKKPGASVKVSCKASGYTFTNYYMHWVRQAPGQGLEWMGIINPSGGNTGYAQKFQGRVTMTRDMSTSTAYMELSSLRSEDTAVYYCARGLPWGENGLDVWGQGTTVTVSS VL: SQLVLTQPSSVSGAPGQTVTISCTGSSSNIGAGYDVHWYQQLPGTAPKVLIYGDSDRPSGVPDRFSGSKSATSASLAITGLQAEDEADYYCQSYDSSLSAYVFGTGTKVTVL , thanks.
A: 9.46
